Test system: U2932 parental
Test: cell proliferation relative to vehicle (% of vehicle); higher = less growth inhibition
Details: 50 nM; 72 h
outcomeMeasure: cell proliferation
Write the number on its own, no unit after it.

Some molecules with known cell proliferation results, for comparison:
molecule	outcomeMeasure	testResult
CO[C@H]1C[C@@H]2CC[C@@H](C)[C@@](O)(O2)C(=O)C(=O)N2CCCC[C@H]2C(=O)O[C@H]([C@H](C)C[C@@H]2CC[C@@H](OC(=O)C(C)(CO)CO)[C@H](OC)C2)CC(=O)[C@H](C)/C=C(\C)[C@@H](O)[C@@H](OC)C(=O)[C@H](C)C[C@H](C)/C=C/C=C/C=C/1C	cell proliferation	59.6
Clc1ccc(C2(c3ccc(-c4cn[nH]c4)cc3)CCNCC2)cc1	cell proliferation	93
CC1(C)CCC(c2ccc(Cl)cc2)=C(CN2CCN(c3ccc(C(=O)NS(=O)(=O)c4ccc(N[C@H](CCN5CCOCC5)CSc5ccccc5)c(S(=O)(=O)C(F)(F)F)c4)cc3)CC2)C1 [ABT-263 (Navitoclax)]	cell proliferation	91.5
CO[C@H]1C[C@@H]2CC[C@@H](C)[C@@](O)(O2)C(=O)C(=O)N2CCCC[C@H]2C(=O)O[C@H]([C@H](C)C[C@@H]2CC[C@@H](OP(C)(C)=O)[C@H](OC)C2)CC(=O)[C@H](C)/C=C(\C)[C@@H](O)[C@@H](OC)C(=O)[C@H](C)C[C@H](C)/C=C/C=C/C=C/1C [Ridaforolimus (Deforolimus, MK-8669)]	cell proliferation	56.4
Oc1cc(O)cc(/C=C/c2ccc(O)c(O)c2)c1 [Piceatannol]	cell proliferation	98.7

Documented cell proliferation of Cc1ccc(F)c(NC(=O)Nc2ccc(-c3cccc4[nH]nc(N)c34)cc2)c1 [Linifanib (ABT-869)] : 90.6

Quick note, cell proliferation for COc1cccc(-c2cc(F)ccc2C2Cc3nc(N)nc(C)c3C(=O)N2)n1 (stereo not drawn) landed at 7.13

So for COc1cc(F)c(F)c(Nc2ccc(I)cc2F)c1NS(=O)(=O)C1(C[C@H](O)CO)CC1 [Refametinib (RDEA119, Bay 86-9766)] , the logged cell proliferation turned out to be 92.8
